Source of measurements: PubChem BioAssay AID1508625

Record form. Attribute: corrected activity, negative = more killing. Fill in for each entry.
Assay: small molecules boosting NK-mediated OVCAR3 lysis – imaging, primary NK cells, calcein-AM imaging, primary screen (AID 1508625);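 also: compound given to NK cells 16 h before adding targets at 1.5 to 1 ratio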
Conditions: OVCAR3 lysis by primary NK cells, at 5 µM
Give bare numbers, in %.

Could you report corrected activity, negative = more killing for every entry in the following list?
1. COc1ccccc1CNCc1ccccn1
2. COc1cc2c(cc1NC(=O)COc1ccccc1F)oc1ccccc12
3. COC(=O)c1ccc(CN2CCN3CCCC3C2C)cc1 (stereo not drawn)

-2.41
0.193
-3.15

###

Assay: small molecules boosting NK-mediated OVCAR3 lysis – imaging, primary NK cells, calcein-AM imaging, primary screen (AID 1508625);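 also: compound given to NK cells 16 h before adding targets at 1.5 to 1 ratio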;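 as to Z-score: more negative robust z means stronger NK killing of tumor cells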
Conditions: OVCAR3 lysis by primary NK cells, at 5 µM; measured here: robust Z-score, single-point normalisation
Readout Kind: z-score
Give bare numbers.

A selection of reference data follows.
compound="CCCCOc1ccc(CN2CCN3CCCC3C2C)cc1 (stereo not drawn)" measured=-1.66
compound=COc1ccc(OC)c(NC(=O)c2cc3cccc(OC)c3oc2=O)c1 measured=-1.31
compound=COc1ccccc1Cn1c(=S)[nH]c2cc(Cl)ccc2c1=O measured=-1.05
compound="COc1cccc(CCNc2ccc(N3C(=O)C4CCC(C)CC4C3=O)cc2[N+](=O)[O-])c1 (stereo not drawn)" measured=-1.17
compound=Cc1ccc(C(=O)Nc2cccc(C(=O)O)c2)cc1S(=O)(=O)Nc1ccc(Br)cc1 measured=-3.16

For each of the compounds below, state z-score.
1. CCCn1c(C)nc2c(=O)oc3ccccc3c21
2. CC(=O)Nc1ccc(NC(=O)CC2OCC3CCCCN3C2=O)cc1 (stereo not drawn)
3. CCOC(=O)CCN1C(=O)C(=Cc2cccc(OC)c2)SC1=S
4. CC(C(=O)O)N1C(=O)C2C3CCC(C3)C2C1=O (stereo not drawn)
5. O=C(Nc1ccc(Br)cc1)C1CCN(S(=O)(=O)c2cccc3nonc23)CC1
6. COc1cc2c(cc1NC(=O)C(C)c1ccc([N+](=O)[O-])cc1)oc1ccccc12 (stereo not drawn)
7. COC(=O)CCC(=O)NNC(=O)c1ccc(Br)cc1

0.943
-1.95
-1.55
0.359
-0.893
-1.25
-1.49

Kindly give each listed record's z-score.
1. Cc1c(C(=O)Nc2ccccc2O)cccc1[N+](=O)[O-]
2. CCOc1ccc(NC(=O)c2c(NCc3ccncc3)sc3c2CCCCC3)cc1
3. O=C1C(=O)N(Cc2cccnc2)C(c2ccncc2)C1=C(O)c1ccc(F)cc1 (stereo not drawn)
4. CN1C(=O)c2ccccc2Sc2ccc(C(=O)O)cc21
5. Cc1cc(C)cc(NC(=O)c2ccccc2OCC(=O)N2CCc3ccccc32)c1
6. COc1ccc(C(=O)N2CCN(CC=Cc3ccccc3)CC2)cc1
7. O=C(Nc1c[nH]c(=O)[nH]c1=O)c1ccc(N2C(=O)C3C4C=CC(C4)C3C2=O)cc1 (stereo not drawn)
8. Clc1ccccc1[C@@H]1Nc2ccccc2[C@@H]2C=CC[C@@H]21

1. -1.61
2. -0.0869
3. -1.62
4. -2.17
5. -1.3
6. -0.422
7. 0.184
8. -0.523

Hi, could you look up z-score for each item in my list?
1. CC(C)(C)c1ccc(C(=O)CC2(O)C(=O)Nc3ccc(Cl)cc32)cc1 (stereo not drawn)
2. Cc1c(NC(=O)COc2ccc(Oc3ccccc3)cc2)c(=O)n(-c2ccccc2)n1C
3. Cc1ccc(S(=O)(=O)NN=Cc2ccc(I)cc2)cc1
4. CC1=NN(C(=O)c2ccc(C(N)=O)cc2)C(O)(C(F)(F)F)C1 (stereo not drawn)
5. Cc1cc(Br)c(O)c(C=NCCNC(=O)c2nonc2N)c1
6. COc1ccc(C(=O)Nc2ccc(NC(=O)c3ccc(C(C)(C)C)cc3)cc2)cc1[N+](=O)[O-]
7. Cc1c(C(=O)Nc2cccc([N+](=O)[O-])c2)sc2ncn(CC(=O)N3CCOCC3)c(=O)c12

-0.898
0.434
-0.82
-0.786
0.173
-2.1
-0.779

Give z-score for all compounds that follow.
1. CCC(Oc1ccccc1)C(=O)N1CCC(C(N)=O)CC1 (stereo not drawn)
2. CC(=O)OC1CC(C)N(C(=O)c2ccccc2)c2ccc(C)cc21 (stereo not drawn)
3. COc1ccc(Oc2c(C(F)(F)F)oc3cc(OC(=O)c4ccc(OC)c(OC)c4)ccc3c2=O)cc1

1: -1.64; 2: -1.73; 3: -0.672
